- measurement-notes: Half life in mouse liver microsomes
- Format: ADME, Microsome
value-kind: half-life

>  <chemical-structure>
O=C(O)[C@H]1CC[C@H](C(=O)N2CC[C@](c3ccc(C(F)(C(F)(F)F)C(F)(F)F)cc3)(S(=O)(=O)c3ccc(F)cc3)C2)CC1

>  <value-kind>
half-life

>  <result>
> 120 min

$$$$

* * *

- target-system: Nuclear receptor subfamily 1 group I member 2 (Homo sapiens, UniProt O75469)
- Sequence (O75469 whole entry): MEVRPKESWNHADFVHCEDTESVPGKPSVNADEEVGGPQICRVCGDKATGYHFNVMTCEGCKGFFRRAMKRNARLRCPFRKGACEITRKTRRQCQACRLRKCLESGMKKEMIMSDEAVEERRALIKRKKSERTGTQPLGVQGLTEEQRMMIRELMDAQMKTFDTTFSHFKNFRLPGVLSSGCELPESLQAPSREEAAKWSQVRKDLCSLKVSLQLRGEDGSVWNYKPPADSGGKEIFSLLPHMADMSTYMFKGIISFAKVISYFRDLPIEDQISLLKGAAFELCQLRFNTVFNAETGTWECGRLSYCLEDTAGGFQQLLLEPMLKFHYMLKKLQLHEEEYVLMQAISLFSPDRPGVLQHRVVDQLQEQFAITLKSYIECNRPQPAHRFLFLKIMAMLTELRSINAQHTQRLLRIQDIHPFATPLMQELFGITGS
- measurement-notes: Transactivation of PXR in human HepG2 cells

>  <chemical-structure>
O=C(O)[C@H]1CC[C@H](C(=O)N2CC[C@](c3ccc(C(F)(C(F)(F)F)C(F)(F)F)cc3)(S(=O)(=O)c3ccc(F)c(C4CC4)c3)C2)CC1

>  <EC50>
> 50 µM

$$$$
>  <chemical-structure>
O=C(O)C1CCN(C(=O)N2CC[C@](c3ccc(C(F)(C(F)(F)F)C(F)(F)F)cc3)(S(=O)(=O)c3ccc(F)cc3)C2)CC1

>  <EC50>
> 46.1 µM

$$$$
>  <chemical-structure>
CCc1cc(S(=O)(=O)[C@@]2(c3ccc(C(F)(C(F)(F)F)C(F)(F)F)cc3)CCN(C(=O)[C@H]3CC[C@H](C(=O)O)CC3)C2)ccc1F

>  <EC50>
> 50 µM

$$$$

* * *

- target-system: UniProtKB O75469
- measurement-notes: Transactivation of PXR in human HepG2 cells relative to rifampicin
- Assay type: ADME, cell-based
- protocol-conditions: read-out: %max
Label true (1) when Emax is strictly below 40%; at or above that, label false (0).

>  <chemical-structure>
CC(=O)N1CCN(C(=O)N2CC[C@](c3ccc(C(F)(C(F)(F)F)C(F)(F)F)cc3)(S(=O)(=O)c3ccc(F)cc3)C2)CC1

>  <target-system>
UniProtKB O75469

>  <label-class>
true (1)

$$$$
>  <chemical-structure>
CS(=O)(=O)N1CCC(C(=O)N2CC[C@](c3ccc(C(O)(C(F)(F)F)C(F)(F)F)cc3)(S(=O)(=O)c3ccc(F)cc3)C2)CC1

>  <target-system>
UniProtKB O75469

>  <label-class>
false (0)

$$$$
>  <chemical-structure>
COc1ccc(S(=O)(=O)[C@@]2(c3ccc(C(F)(C(F)(F)F)C(F)(F)F)cc3)CCN(C(=O)[C@H]3CC[C@H](C(=O)O)CC3)C2)cc1

>  <target-system>
UniProtKB O75469

>  <label-class>
true (1)

$$$$
>  <chemical-structure>
O=C(O)[C@H]1CC[C@H](C(=O)N2CC[C@](c3ccc(C(F)(C(F)(F)F)C(F)(F)F)cc3)(S(=O)(=O)c3ccccc3)C2)CC1

>  <target-system>
UniProtKB O75469

>  <label-class>
true (1)

$$$$
>  <chemical-structure>
CC(c1ccc(C2(S(=O)(=O)c3ccc(F)cc3)CCCC2)cc1)(C(F)(F)F)C(F)(F)F

>  <target-system>
UniProtKB O75469

>  <label-class>
false (0)

$$$$
>  <chemical-structure>
O=S(=O)(c1ccc(F)cc1)C1(c2ccc(C(Cl)(C(F)(F)F)C(F)(F)F)cc2)CCCC1

>  <target-system>
UniProtKB O75469

>  <label-class>
false (0)

$$$$

* * *

Each entry below lists one item and its recorded pEC50 value.
- target-system: Nuclear receptor subfamily 1 group I member 2 (Homo sapiens)
- measurement-notes: Transactivation of PXR in human HepG2 cells
pEC50: −log10 of the molar value.

>  <chemical-structure>
CCc1ccc(S(=O)(=O)[C@@]2(c3ccc(C(F)(C(F)(F)F)C(F)(F)F)cc3)CCN(C(=O)[C@H]3CC[C@H](C(=O)O)CC3)C2)cc1

>  <pEC50>
< 4.30

$$$$
>  <chemical-structure>
CC(c1ccc(C2(S(=O)(=O)c3ccc(F)cc3)CCCC2)cc1)(C(F)(F)F)C(F)(F)F

>  <pEC50>
6.12

$$$$
>  <chemical-structure>
CS(=O)(=O)N1CCC(C(=O)N2CC[C@](c3ccc(C(F)(C(F)(F)F)C(F)(F)F)cc3)(S(=O)(=O)c3ccc(F)cc3)C2)CC1

>  <pEC50>
< 4.30

$$$$

* * *

Quick reference for Emax among some molecules
- target-system: PXR (NR1I2) (Homo sapiens)
- measurement-notes: Transactivation of PXR in human HepG2 cells relative to rifampicin
- Format: ADME, cell-based
- protocol-conditions: read-out: %max
value-kind: Emax

>  <molecule>
CC(=O)N1CCC(c2ccc(C(O)(C(F)(F)F)C(F)(F)F)cc2)(S(=O)(=O)c2ccc(F)cc2)C1 (racemic)

>  <target-system>
PXR (NR1I2) (Homo sapiens)

>  <result>
100%

$$$$
>  <molecule>
O=S(=O)(c1ccc(F)cc1)C1(c2ccc(C(O)(C(F)(F)F)C(F)(F)F)cc2)CCCC1

>  <target-system>
PXR (NR1I2) (Homo sapiens)

>  <result>
110%

$$$$
>  <molecule>
CC(O)(c1ccc(C2(S(=O)(=O)c3ccc(F)cc3)CCCC2)cc1)C(F)(F)F (racemic)

>  <target-system>
PXR (NR1I2) (Homo sapiens)

>  <result>
110%

$$$$

* * *

- target-system: Nuclear receptor subfamily 1 group I member 2 (Homo sapiens, UniProt O75469)
- measurement-notes: Transactivation of PXR in human HepG2 cells

>  <chemical-structure>
O=C(O)[C@H]1CC[C@H](C(=O)N2CC[C@](c3ccc(C(F)(C(F)(F)F)C(F)(F)F)cc3)(S(=O)(=O)c3ccccc3)C2)CC1

>  <EC50>
> 50 µM

$$$$
>  <chemical-structure>
CS(=O)(=O)N1CCC(C(=O)N2CC[C@](c3ccc(C(O)(C(F)(F)F)C(F)(F)F)cc3)(S(=O)(=O)c3ccc(F)cc3)C2)CC1

>  <EC50>
> 2.47 µM

$$$$
>  <chemical-structure>
O=C(O)[C@H]1CC[C@H](C(=O)N2CC[C@](c3ccc(C(F)(C(F)(F)F)C(F)(F)F)cc3)(S(=O)(=O)c3ccc(F)cc3)C2)CC1

>  <EC50>
> 50 µM

$$$$

* * *

Listed here are compounds together with their documented pEC50.
- target-system: Nuclear receptor subfamily 1 group I member 2 (Homo sapiens, UniProt O75469)
- measurement-notes: Transactivation of PXR in human HepG2 cells
pEC50: −log10 of the molar value.
value-kind: pEC50

>  <chemical-structure>
O=C(O)[C@H]1CC[C@H](C(=O)N2CC[C@](c3ccc(C(O)(C(F)(F)F)C(F)(F)F)cc3)(S(=O)(=O)c3ccc(F)cc3)C2)CC1

>  <target-system>
Nuclear receptor subfamily 1 group I member 2 (Homo sapiens, UniProt O75469)

>  <value-kind>
pEC50

>  <result>
< 4.30

$$$$
>  <chemical-structure>
COc1ccc(S(=O)(=O)[C@@]2(c3ccc(C(F)(C(F)(F)F)C(F)(F)F)cc3)CCN(C(=O)[C@H]3CC[C@H](C(=O)O)CC3)C2)cc1

>  <target-system>
Nuclear receptor subfamily 1 group I member 2 (Homo sapiens, UniProt O75469)

>  <value-kind>
pEC50

>  <result>
< 4.30

$$$$
>  <chemical-structure>
Cc1cc(S(=O)(=O)[C@@]2(c3ccc(C(F)(C(F)(F)F)C(F)(F)F)cc3)CCN(C(=O)[C@H]3CC[C@H](C(=O)O)CC3)C2)ccc1F

>  <target-system>
Nuclear receptor subfamily 1 group I member 2 (Homo sapiens, UniProt O75469)

>  <value-kind>
pEC50

>  <result>
< 4.64

$$$$
